Tested on: calf thymus double stranded DNA and ribosomal RNA
assay.overview: Determination of DNA/RNA fluorescence ratios
Format: binding
measurement.setup: excitation value, first number of ex/em cell
observation.type: ex/em: excitation (nm)

molecule: CCN(CC)Cc1ccc(C2=CC(=Cc3sc4cc(-c5ccccc5)ccc4[n+]3C)c3ccccc3N2c2ccccc2)cc1 [Compound 91]
reported.measurement: 522
--
molecule: CN1C(=Cc2cc[n+](C)c3ccccc23)Sc2ccccc21 [Thiazole orange, reference compound]
reported.measurement: 510
--
molecule: CCCN(CCCN(C)C)C1=CC(=Cc2sc3cc(-c4c(OC)cccc4OC)ccc3[n+]2C)c2ccccc2N1c1ccccc1 [Compound 28]
reported.measurement: 497
--
molecule: CCCN(CCCN(C)C)C1=CC(=Cc2sc3cc(-c4c(OC)cccc4OC)ccc3[n+]2C)c2ccccc2N1Cc1ccccc1 [Compound 16]
reported.measurement: 504
--
molecule: COc1cccc(OC)c1-c1ccc2c(c1)sc(C=C1C=CN(CCc3ccccc3)c3ccccc31)[n+]2C [Compound 62]
reported.measurement: 510
--
molecule: C[n+]1c(C=C2C=CN(Cc3ccccc3)c3ccccc32)oc2ccc(-c3ccccc3)cc21 [Compound 89]
reported.measurement: 485
--
molecule: CCCN(CCCN(C)C)C1=CC(=Cc2sc3cc(-c4c(OC)cccc4OC)ccc3[n+]2C)c2ccccc2N1C [Compound 30]
reported.measurement: 495
--
molecule: C[n+]1cccc(-c2ccc3c(c2)sc(C=C2C=CN(Cc4ccccc4)c4ccccc42)[n+]3C)c1 [Compound 99]
reported.measurement: 511
--
molecule: CCCN(CCCN(C)C)C1=CC(=Cc2sc3cc(-c4c(OC)cccc4OC)ccc3[n+]2C)c2cc(OC)ccc2N1Cc1ccccc1 [Compound 39]
reported.measurement: 507
--
molecule: COc1cccc(OC)c1-c1ccc2c(c1)sc(/C=C1\C=C(N(C)CCCC(=O)NCCOCCOCCOCCO)N(Cc3ccccc3)c3ccccc31)[n+]2C [Compound 111]
reported.measurement: 497
--
molecule: COc1cccc(OC)c1-c1ccc2c(c1)sc(/C=C1\C=C(N(C)CCCC(=O)O)N(Cc3ccccc3)c3ccccc31)[n+]2C [Compound 109]
reported.measurement: 496
--
molecule: C[n+]1c(C=C2C=CN(Cc3ccccc3)c3ccccc32)sc2cc(-c3cccnc3)ccc21 [Compound 97]
reported.measurement: 513
--
molecule: Cc1cccc(C)c1-c1ccc2c(c1)sc(C=C1C=C(N(C)CCCN(C)C)N(c3ccccc3)c3ccccc31)[n+]2C [Compound 69]
reported.measurement: 494
--
molecule: COc1cccc(OC)c1-c1ccc2c(c1)sc(C=C1C=CN(Cc3ccncc3)c3ccccc31)[n+]2C [Compound 55]
reported.measurement: 513
